Answer each item with its documented Plant response rating, Cmn Purslane.
- System: common purslane
- protocol-summary: Test G preemergence/postemergence greenhouse plant response rating 0 to 100
- Assay type: in vivo, Portulaca oleracea
- reported-conditions: POSTEMERGENCE, Rate 250 g/ha, 0 to 100 scale

>  <compound>
CC(C)COc1cc(-c2nn3c(c2Cl)CCCC3)c(F)cc1Cl [Compound 30]

>  <Plant response rating, Cmn Purslane>
60

$$$$

Provide reported Plant response rating, Cmn Purslane for each item, in the same order as listed.
1. C#CCOc1cc(-c2nn3c(c2Br)CCCC3)c(F)cc1Cl [Compound 26]
2. C=CCN1C(=O)COc2cc(F)c(-c3nn4c(c3Cl)CCCC4)cc21 [Compound 33]
3. COc1cc(-c2nn3c(c2Cl)CCCC3)c(F)cc1Cl [Compound 29]
4. CC(C)N1C(=O)COc2cc(F)c(-c3nn4c(c3Cl)CCCC4)cc21 [Compound 31]

# output
1: 90; 2: 80; 3: 80; 4: 80

====

- Test system: duck salad
- protocol-summary: Test C flood test plant response rating 0 to 100
- Format: in vivo, Heteranthera limosa
- reported-conditions: flood test species listed under POSTEMERGENCE, 62 g/ha, 0 to 100 scale
Hi there, I'd appreciate the recorded Plant response rating Duck salad for every entry that follows.
One number for each entry.

Here is how some compounds turned out for Plant response rating Duck salad.
>  <compound>
CCC(C)Oc1cc(-c2nn3c(c2Cl)CCCC3)c(F)cc1Cl (centres unmarked)

>  <Plant response rating Duck salad>
60

$$$$
>  <compound>
CC(C)OC(=O)c1cc(-c2nn3c(c2Cl)CCCC3)c(F)cc1Cl

>  <Plant response rating Duck salad>
70

$$$$
>  <compound>
COC(=O)C(C)Oc1cc(-c2nn3c(c2Cl)CCCC3)c(F)cc1Cl (centres unmarked)

>  <Plant response rating Duck salad>
30

$$$$
>  <compound>
C#CCOc1cc(-c2nn3c(c2Br)CCCC3)c(F)cc1Cl

>  <Plant response rating Duck salad>
70

$$$$

Note: attention shifts to another entry.
# input Give its Plant response rating Duck salad value. Item: C#CC(C)Oc1cc(-c2nn3c(c2Br)CCCC3)c(F)cc1Cl (centres unmarked)
# output 75

====

- Test system: goosegrass
- protocol-summary: Test G preemergence/postemergence greenhouse plant response rating 0 to 100
- Assay type: in vivo, Eleusine indica
- reported-conditions: PREEMERGENCE, Rate 125 g/ha, 0 to 100 scale
Kindly supply the reported Plant response rating, Goosegrass values for the records listed here.

Items follow; give Plant response rating, Goosegrass for each.
1. C#CCOc1cc(-c2nn3c(c2Br)CCCC3)c(F)cc1Cl
2. C#CCN1C(=O)COc2cc(F)c(-c3nn4c(c3Cl)CCCC4)cc21
3. C=CCN1C(=O)COc2cc(F)c(-c3nn4c(c3Cl)CCCC4)cc21
4. COC(=O)C(C)Oc1cc(-c2nn3c(c2Cl)CCCC3)c(F)cc1Cl (stereo not shown)

# output
[70, 0, 0, 0]

====

- System: velvetleaf
- protocol-summary: Test B preemergence/postemergence greenhouse plant response rating 0 to 10
- Format: in vivo, Abutilon theophrasti
- reported-conditions: PREEMERGENCE, Rate 50 g/ha; 0 to 10 scale
Binary call on Plant response rating, Velvetleaf with cut-off 1: strictly below means label 1, and equality or higher means label 0.

>  <smiles-record>
CCOCOc1cc(-c2nn3c(c2Cl)CCCC3)c(F)cc1Cl

>  <label-value>
label 0

$$$$
>  <smiles-record>
COCCN1C(=O)COc2cc(F)c(-c3nn4c(c3Cl)CCCC4)cc21

>  <label-value>
label 0

$$$$
>  <smiles-record>
C=CCOC(=O)COc1cc(-c2nn3c(c2Cl)CCCC3)c(F)cc1Cl

>  <label-value>
label 0

$$$$
>  <smiles-record>
CCCN1C(=O)COc2cc(F)c(-c3nn4c(c3Br)CCCC4)cc21

>  <label-value>
label 0

$$$$
>  <smiles-record>
Fc1cc(Cl)c(OCCCl)cc1-c1nn2c(c1Cl)CCCC2

>  <label-value>
label 1

$$$$

# input Please let me know if CCOC(=O)COc1cc(-c2nn3c(c2Cl)CCCC3)c(F)cc1Cl shows Plant response rating, Velvetleaf below 1.
# output label 1

# input Identify whether the molecule CC(C)(C)C(=O)COc1cc(-c2nn3c(c2Cl)CCCC3)c(Cl)cc1Cl records Plant response rating, Velvetleaf below 1.
# output label 0

# input Plant response rating, Velvetleaf under 1? Item: O=C1COc2cc(F)c(-c3nn4c(c3Cl)CCCC4)cc2N1
# output label 0

====

- Tested on: corn
- protocol-summary: Test B preemergence/postemergence greenhouse plant response rating 0 to 10
- Type: in vivo, Zea mays
- reported-conditions: POSTEMERGENCE, Rate 200 g/ha; 0 to 10 scale
Returns label 1 if the recorded Plant response rating, Corn is greater than or equal to 5, and label 0 otherwise.

Please review the entries below; each comes with its answer.
>  <molecule>
COc1cc(-c2nn3c(c2Cl)CCCC3)c(F)cc1Cl

>  <label-value>
label 1

$$$$
>  <molecule>
CC(C)COc1cc(-c2nn3c(c2Cl)CCCC3)c(F)cc1Cl

>  <label-value>
label 0

$$$$
>  <molecule>
CC(C)OC(=O)c1cc(-c2nn3c(c2Cl)CCCC3)c(F)cc1Cl

>  <label-value>
label 1

$$$$

Could you now consider this next molecule?
# input Quick check, Plant response rating, Corn >= 5? COC(=O)C(C)Oc1cc(-c2nn3c(c2Cl)CCCC3)c(F)cc1Cl (centres unmarked)
# output label 1

====

- Test system: barley
- protocol-summary: Test B preemergence/postemergence greenhouse plant response rating 0 to 10
- Format: in vivo, Hordeum vulgare
- reported-conditions: PREEMERGENCE, Rate 50 g/ha; 0 to 10 scale
Give Plant response rating, Barley for every item shown.
One number for each entry.

# annotated cases, reported Plant response rating, Barley shown
>  <smiles-record>
CC(C)COc1cc(-c2nn3c(c2Cl)CCCC3)c(F)cc1Cl

>  <Plant response rating, Barley>
0

$$$$
>  <smiles-record>
Oc1cc(-c2nn3c(c2Br)CCCC3)c(F)cc1Cl

>  <Plant response rating, Barley>
0

$$$$

Now let's try a different one.
# input Sample C=CCOc1cc(-c2nn3c(c2Cl)CCCC3)c(Cl)cc1Cl — what was its Plant response rating, Barley?
# output 0

====

Can you tell me Plant response rating, Rape for the items I'm about to list?
- System: rape
- protocol-summary: Test C preemergence/postemergence greenhouse plant response rating 0 to 100
- Type: in vivo, Brassica napus
- reported-conditions: POSTEMERGENCE, 250 g/ha, 0 to 100 scale

Study these solved cases before continuing.
>  <compound>
CC(C)COc1cc(-c2nn3c(c2Cl)CCCC3)c(F)cc1Cl [Compound 30]

>  <Plant response rating, Rape>
100

$$$$
>  <compound>
COC(=O)C(C)Oc1cc(-c2nn3c(c2Cl)CCCC3)c(F)cc1Cl (stereo not drawn) [Compound 28]

>  <Plant response rating, Rape>
100

$$$$
>  <compound>
Fc1cc(Cl)c(OCCCl)cc1-c1nn2c(c1Cl)CCCC2 [Compound 49]

>  <Plant response rating, Rape>
100

$$$$

Record Plant response rating, Rape for all entries; do not skip any.
1. CC(C)OC(=O)c1cc(-c2nn3c(c2Cl)CCCC3)c(F)cc1Cl [Compound 44]
2. CCC(C)Oc1cc(-c2nn3c(c2Cl)CCCC3)c(F)cc1Cl (stereo not drawn) [Compound 48]
3. C#CC(C)Oc1cc(-c2nn3c(c2Br)CCCC3)c(F)cc1Cl (stereo not drawn) [Compound 66]

# output
1. 100
2. 90
3. 100

====

- System: rice
- protocol-summary: Test C flood test plant response rating 0 to 100
- Format: in vivo, Oryza sativa
- reported-conditions: POSTEMERGENCE section, flood test; Rate 4 g/ha
- Source text: The compounds evaluated in this test were formulated in a non-phytoxic solvent and applied to the soil surface before plant seedlings emerged (preemergence application), to water that covered the soil surface (flood application), and to plants that were in the one-to-four leaf stage (postemergence application). A sandy loam soil was used for the preemergence and postemergence tests, while a silt loam soil was used in the flood test. […]
Mark True for Plant response rating (0 to 100), Rice Japonica under 30, False if at or over.

# input Please let me know if CC(C)COc1cc(-c2nn3c(c2Cl)CCCC3)c(F)cc1Cl [Compound 30] shows Plant response rating (0 to 100), Rice Japonica below 30.
# output False

# input Please let me know if CC(C)OC(=O)c1cc(-c2nn3c(c2Cl)CCCC3)c(F)cc1Cl [Compound 44] shows Plant response rating (0 to 100), Rice Japonica below 30.
# output True

# input Check if Plant response rating (0 to 100), Rice Japonica falls below 30 for C=CCN1C(=O)COc2cc(F)c(-c3nn4c(c3Cl)CCCC4)cc21 [Compound 33] .
# output False

# input Bench note: check whether C#CC(C)N1C(=O)COc2cc(F)c(-c3nn4c(c3Cl)CCCC4)cc21 (stereo not drawn) [Compound 50] shows Plant response rating (0 to 100), Rice Japonica below 30
# output True

# input Consider Fc1cc(Cl)c(OCCCl)cc1-c1nn2c(c1Cl)CCCC2 [Compound 49] . Does its Plant response rating (0 to 100), Rice Japonica lie strictly below 30?
# output True
